Target: Multidrug efflux pump subunit AcrB (Escherichia coli (strain K12)) (UniProt P31224)
Assay: Inhibition of AcrB in Escherichia coli BW25113 assessed as potentiation of erythromycin induced antibacterial activity by measuring erythromycin MIC at 256 ug/ml measured after 18 hrs by checkerboard titration method (reference value: 64 ug/ml)
Conditions: dose 256.0 µg/ml
experimental_readout: MIC (µg/mL)
Field format: number, assumed µg/mL, no unit text.

Query: Which value of MIC has been reported for Oc1ccc(CCCCCc2ccc(O)c(O)c2)cc1O in the records?
Response: 64

Query: Which value of MIC has been reported for Oc1ccc(CCCc2ccc(O)c(O)c2)cc1O in the records?
Response: 32

Query: Which value of MIC has been reported for Oc1ccc(CCCCc2ccccc2O)cc1O in the records?
Response: 32

Query: Which value of MIC has been reported for Oc1ccc(CCCCc2ccc(Br)cc2)cc1O in the records?
Response: 64

Query: Which value of MIC has been reported for Oc1ccc(CCCCc2ccc(O)c(O)c2)cc1O in the records?
Response: 32

Query: Which value of MIC has been reported for Oc1ccc(CCCCCCc2ccc(O)c(O)c2)cc1O in the records?
Response: 64

Query: Which value of MIC has been reported for Oc1ccc(CCCCCCCc2ccc(O)c(O)c2)cc1O in the records?
Response: 64

Query: Which value of MIC has been reported for Oc1ccc(CCCCc2cc3cccc4ccc5cccc2c5c43)cc1O in the records?
Response: 32

Query: Which value of MIC has been reported for Oc1ccc(CCCCc2cc(O)c(O)c(O)c2)cc1O in the records?
Response: 32

Query: Which value of MIC has been reported for Oc1ccc(CCCCc2ccc(Cl)cc2)cc1O in the records?
Response: 64

Query: Which value of MIC has been reported for C[C@H](Cc1ccc(O)c(O)c1)[C@@H](C)Cc1ccc(O)c(O)c1 in the records?
Response: 32

###

Molecular target: Multidrug efflux pump subunit AcrB (Escherichia coli (strain K12))
Sequence (whole entry): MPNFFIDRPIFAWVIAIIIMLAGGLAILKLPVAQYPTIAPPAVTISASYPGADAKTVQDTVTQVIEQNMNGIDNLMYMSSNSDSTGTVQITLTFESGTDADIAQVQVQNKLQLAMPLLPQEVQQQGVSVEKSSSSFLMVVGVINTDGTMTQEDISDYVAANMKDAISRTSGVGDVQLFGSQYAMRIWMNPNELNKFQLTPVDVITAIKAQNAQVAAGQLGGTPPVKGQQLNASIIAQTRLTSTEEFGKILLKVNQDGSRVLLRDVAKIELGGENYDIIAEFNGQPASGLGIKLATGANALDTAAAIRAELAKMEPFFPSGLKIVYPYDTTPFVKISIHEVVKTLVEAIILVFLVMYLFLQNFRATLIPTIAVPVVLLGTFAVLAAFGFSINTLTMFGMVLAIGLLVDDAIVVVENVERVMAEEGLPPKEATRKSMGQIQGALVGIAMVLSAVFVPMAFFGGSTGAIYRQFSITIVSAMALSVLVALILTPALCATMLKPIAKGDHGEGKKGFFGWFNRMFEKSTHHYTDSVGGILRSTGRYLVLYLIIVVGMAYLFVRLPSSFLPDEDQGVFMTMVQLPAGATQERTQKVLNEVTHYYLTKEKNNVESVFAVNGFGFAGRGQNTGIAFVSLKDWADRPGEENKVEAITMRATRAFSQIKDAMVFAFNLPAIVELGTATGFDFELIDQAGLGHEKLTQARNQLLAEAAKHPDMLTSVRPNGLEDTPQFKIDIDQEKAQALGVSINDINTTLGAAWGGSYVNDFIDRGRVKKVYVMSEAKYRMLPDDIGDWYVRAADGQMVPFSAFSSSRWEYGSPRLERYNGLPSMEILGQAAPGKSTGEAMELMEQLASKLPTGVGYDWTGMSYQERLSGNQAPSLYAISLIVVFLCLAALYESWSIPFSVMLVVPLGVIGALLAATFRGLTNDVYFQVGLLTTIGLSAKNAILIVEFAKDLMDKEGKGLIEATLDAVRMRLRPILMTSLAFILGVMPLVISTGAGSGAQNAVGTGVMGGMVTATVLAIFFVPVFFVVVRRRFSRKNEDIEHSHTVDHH
Assay: Inhibition of AcrB in Escherichia coli BW25113 assessed as potentiation of tetraphenylphosphonium induced antibacterial activity by measuring tetraphenylphosphonium MIC at 32 ug/ml measured after 18 hrs by checkerboard titration method (reference value: 1024 ug/ml)
Conditions: dose 32.0 µg/ml
experimental_readout: MIC (µg/mL)
Field format: number, assumed µg/mL, no unit text.

Query: Which value of MIC has been reported for O=C(NCCc1ccc(O)c(O)c1)c1ccc(C(F)(F)F)cc1 in the records?
Response: 1020

Query: Which value of MIC has been reported for Oc1ccc(CCCc2ccc(O)c(O)c2)cc1O in the records?
Response: 1020

Query: Which value of MIC has been reported for Oc1ccc(CCCCCCc2ccc(O)c(O)c2)cc1O in the records?
Response: 512

Query: Which value of MIC has been reported for Oc1ccc(CCCCc2ccc(Br)cc2)cc1O in the records?
Response: 1020

Query: Which value of MIC has been reported for Nc1ccc(C(=O)NCCc2ccc(O)c(O)c2)cc1 in the records?
Response: 1020

Query: Which value of MIC has been reported for Nc1ccccc1C(=O)NCCc1ccc(O)c(O)c1 in the records?
Response: 1020

Query: Which value of MIC has been reported for Oc1ccc(CCCCCCCc2ccc(O)c(O)c2)cc1O in the records?
Response: 512
